Every entry's value here was drawn from ChEMBL document CHEMBL1201862.

tgt: Fatty acid synthase (Homo sapiens)
Sequence (P49327 whole entry): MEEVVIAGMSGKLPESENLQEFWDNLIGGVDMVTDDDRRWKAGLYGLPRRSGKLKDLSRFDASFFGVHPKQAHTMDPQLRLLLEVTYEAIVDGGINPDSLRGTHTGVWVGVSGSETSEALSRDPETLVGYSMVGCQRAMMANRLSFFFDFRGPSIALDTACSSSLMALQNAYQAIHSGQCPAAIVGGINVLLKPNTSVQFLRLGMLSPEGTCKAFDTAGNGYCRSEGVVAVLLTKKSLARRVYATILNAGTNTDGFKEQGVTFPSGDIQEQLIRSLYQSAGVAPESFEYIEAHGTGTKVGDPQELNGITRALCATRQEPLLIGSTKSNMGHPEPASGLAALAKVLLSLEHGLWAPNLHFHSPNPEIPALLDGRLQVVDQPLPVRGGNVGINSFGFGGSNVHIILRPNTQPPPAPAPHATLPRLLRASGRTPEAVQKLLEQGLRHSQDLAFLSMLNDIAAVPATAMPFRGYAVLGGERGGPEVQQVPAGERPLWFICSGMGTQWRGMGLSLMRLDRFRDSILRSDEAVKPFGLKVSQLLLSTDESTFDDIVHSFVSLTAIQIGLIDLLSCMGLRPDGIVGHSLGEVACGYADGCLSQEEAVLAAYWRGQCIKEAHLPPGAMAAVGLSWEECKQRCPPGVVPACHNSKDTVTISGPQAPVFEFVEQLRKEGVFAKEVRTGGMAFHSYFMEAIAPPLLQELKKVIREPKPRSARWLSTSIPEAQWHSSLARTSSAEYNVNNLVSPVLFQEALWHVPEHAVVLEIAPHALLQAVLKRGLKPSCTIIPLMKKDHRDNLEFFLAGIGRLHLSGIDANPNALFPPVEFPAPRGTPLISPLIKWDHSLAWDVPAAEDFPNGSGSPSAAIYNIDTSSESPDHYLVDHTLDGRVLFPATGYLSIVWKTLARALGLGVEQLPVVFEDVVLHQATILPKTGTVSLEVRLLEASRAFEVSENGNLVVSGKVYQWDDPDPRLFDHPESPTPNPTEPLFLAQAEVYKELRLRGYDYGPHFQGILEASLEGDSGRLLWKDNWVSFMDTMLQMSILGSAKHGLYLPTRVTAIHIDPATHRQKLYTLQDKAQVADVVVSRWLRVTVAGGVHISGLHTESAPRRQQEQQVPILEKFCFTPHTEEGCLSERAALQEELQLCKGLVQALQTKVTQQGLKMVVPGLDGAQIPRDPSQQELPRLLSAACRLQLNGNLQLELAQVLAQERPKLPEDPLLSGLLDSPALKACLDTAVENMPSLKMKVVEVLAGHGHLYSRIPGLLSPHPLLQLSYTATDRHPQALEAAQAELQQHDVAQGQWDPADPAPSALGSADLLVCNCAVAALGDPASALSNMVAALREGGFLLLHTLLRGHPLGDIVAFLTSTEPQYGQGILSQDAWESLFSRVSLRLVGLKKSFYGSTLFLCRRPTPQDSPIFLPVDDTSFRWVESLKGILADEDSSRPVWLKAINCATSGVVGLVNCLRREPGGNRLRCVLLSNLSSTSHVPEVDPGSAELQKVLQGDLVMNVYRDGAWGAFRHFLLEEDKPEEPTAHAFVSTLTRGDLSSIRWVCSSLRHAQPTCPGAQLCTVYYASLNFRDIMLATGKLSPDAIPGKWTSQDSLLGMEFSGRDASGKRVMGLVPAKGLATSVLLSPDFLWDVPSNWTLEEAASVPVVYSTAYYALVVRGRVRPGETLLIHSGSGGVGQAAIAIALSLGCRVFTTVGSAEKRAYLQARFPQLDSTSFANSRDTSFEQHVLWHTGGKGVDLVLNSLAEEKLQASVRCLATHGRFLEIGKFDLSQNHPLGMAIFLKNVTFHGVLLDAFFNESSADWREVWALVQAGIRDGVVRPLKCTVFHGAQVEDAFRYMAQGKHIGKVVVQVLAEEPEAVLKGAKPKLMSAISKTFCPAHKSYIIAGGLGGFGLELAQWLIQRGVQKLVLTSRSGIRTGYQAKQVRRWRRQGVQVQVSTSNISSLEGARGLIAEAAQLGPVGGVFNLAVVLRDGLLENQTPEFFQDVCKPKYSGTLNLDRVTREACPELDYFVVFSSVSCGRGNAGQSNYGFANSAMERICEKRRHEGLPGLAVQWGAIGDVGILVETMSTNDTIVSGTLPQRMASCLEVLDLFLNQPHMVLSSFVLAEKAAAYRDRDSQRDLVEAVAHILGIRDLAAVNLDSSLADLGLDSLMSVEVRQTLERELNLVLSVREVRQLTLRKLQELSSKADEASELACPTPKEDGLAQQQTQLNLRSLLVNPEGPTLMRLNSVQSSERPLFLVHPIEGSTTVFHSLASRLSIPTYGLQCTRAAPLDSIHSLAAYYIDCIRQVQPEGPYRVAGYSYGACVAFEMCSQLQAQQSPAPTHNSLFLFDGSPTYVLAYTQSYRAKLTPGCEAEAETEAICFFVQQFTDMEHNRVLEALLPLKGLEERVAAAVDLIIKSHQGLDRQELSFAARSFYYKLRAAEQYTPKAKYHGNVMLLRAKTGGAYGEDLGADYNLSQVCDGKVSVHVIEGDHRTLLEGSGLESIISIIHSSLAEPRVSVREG
testMethodNotes: inhibition of human FAS-TE enzyme activity – biochemical, kinetic fluorescence intensity, dose response (AID 624326);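 note: rate of fluorescence rise from hydrolysis of a fluorogenic O-methyl fluorescein ester substrate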
Format: functional
Calls of active or inactive are those of the source.
Mark one answer only. Choices: active, inactive

Recorded test outcome, item O=C(CSc1ncnc2c1nnn2Cc1ccccc1)NC1CCCCC1
inactive

Recorded test outcome, item CC(=O)c1cccc(-c2ccnc3c2CC(C(=O)Nc2ccc(C(C)C)cc2)O3)c1 (centres undefined)
active

Recorded test outcome, item CCn1cc(C(=O)NCc2ccc(Cl)cc2)c(=O)c2cc(S(=O)(=O)N(C)C)ccc21
active

Recorded test outcome, item COc1ccc([N+](=O)[O-])cc1N(CC(O)Cn1nnc2ccccc21)S(=O)(=O)c1ccc(C)cc1 (centres undefined)
active

Recorded test outcome, item COc1ccc(-c2nn(-c3ccccc3)cc2/C=C/C(=O)O)cc1[N+](=O)[O-]
active

Recorded test outcome, item CC(C)(C)N(Cc1ccccc1)C(=O)COC(=O)c1cccc([N+](=O)[O-])c1
active

Recorded test outcome, item Cc1ccc(C)c(S(=O)(=O)N2CCN(C(=O)Cc3ccc(S(=O)(=O)N4CCOCC4)s3)CC2)c1
active

Recorded test outcome, item CCS(=O)(=O)c1ccc2oc(Nc3ccc(C(C)C)cc3)nc2c1
active

Recorded test outcome, item O=C(COC(=O)C1CCCCC1)Nc1cc([N+](=O)[O-])ccc1F
active

###

tgt: Aminopeptidase N (Plasmodium falciparum FcB1/Columbia, UniProt O96935)
Sequence (O96935 whole entry): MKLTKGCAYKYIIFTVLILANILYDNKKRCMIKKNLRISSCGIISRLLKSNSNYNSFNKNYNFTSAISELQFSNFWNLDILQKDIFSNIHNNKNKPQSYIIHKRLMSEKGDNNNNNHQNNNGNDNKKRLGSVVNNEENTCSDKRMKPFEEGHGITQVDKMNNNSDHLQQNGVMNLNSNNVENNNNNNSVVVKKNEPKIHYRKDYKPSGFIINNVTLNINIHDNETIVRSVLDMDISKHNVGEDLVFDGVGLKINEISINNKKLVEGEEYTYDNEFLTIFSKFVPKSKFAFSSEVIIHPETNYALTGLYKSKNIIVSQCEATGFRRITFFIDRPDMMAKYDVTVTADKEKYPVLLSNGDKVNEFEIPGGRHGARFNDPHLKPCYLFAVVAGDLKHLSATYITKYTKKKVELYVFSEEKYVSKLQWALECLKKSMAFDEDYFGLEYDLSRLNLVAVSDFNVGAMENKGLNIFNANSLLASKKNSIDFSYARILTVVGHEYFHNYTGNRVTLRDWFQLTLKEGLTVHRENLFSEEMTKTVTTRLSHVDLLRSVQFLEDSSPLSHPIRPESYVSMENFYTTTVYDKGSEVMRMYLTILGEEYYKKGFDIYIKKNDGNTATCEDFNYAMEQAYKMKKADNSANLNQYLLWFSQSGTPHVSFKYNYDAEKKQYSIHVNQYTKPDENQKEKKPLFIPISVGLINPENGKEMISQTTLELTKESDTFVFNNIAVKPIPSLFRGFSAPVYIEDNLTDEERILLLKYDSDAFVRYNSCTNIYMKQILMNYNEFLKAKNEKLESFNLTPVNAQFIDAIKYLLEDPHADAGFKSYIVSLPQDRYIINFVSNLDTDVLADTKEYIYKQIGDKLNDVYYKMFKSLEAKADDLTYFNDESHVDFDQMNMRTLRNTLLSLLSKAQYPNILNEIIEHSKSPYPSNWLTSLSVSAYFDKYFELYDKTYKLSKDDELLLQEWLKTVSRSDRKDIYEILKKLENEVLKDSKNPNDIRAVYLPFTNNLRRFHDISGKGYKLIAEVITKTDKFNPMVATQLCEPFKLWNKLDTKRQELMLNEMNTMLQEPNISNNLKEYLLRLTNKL
testMethodNotes: malaria alanyl aminopeptidase activity blockers – biochemical, fluorogenic H-Leu-NHMec substrate, 1536-well (AID 1445)
Parameters: species or system Plasmodium falciparum 3D7, 3D7
Active and inactive are the calls of the source.
Would you kindly list IC50 for each of these compounds?

Tell me its IC50 given O=S(=O)(c1ccc2c(c1)OCCO2)N1CCC(n2nnc3cc(F)ccc32)CC1 as the entry.
8.18 µM (active)

Tell me its IC50 given O=C(CNC(=O)c1ccccc1Br)N/N=C/c1cc(Br)ccc1O as the entry.
26.6 µM (active)

Tell me its IC50 given Nc1ccccc1Sc1ccc(C(=O)c2ccccc2C(=O)O)cc1[N+](=O)[O-] as the entry.
98.9 µM (active)

Tell me its IC50 given CC1=NOC(=O)/C1=C\c1ccc(-c2ccc(Cl)c(C(=O)O)c2)o1 as the entry.
17.4 µM (active)

Tell me its IC50 given COc1ccc(CNC(=O)C2CCN(S(=O)(=O)c3cc(OC)ccc3OC)CC2)cc1 as the entry.
99 µM (active)

Tell me its IC50 given O=C(O)c1cccc(S(=O)(=O)Nc2ccc([N+](=O)[O-])cc2O)c1 as the entry.
66.2 µM (active)

Tell me its IC50 given O=C1Nc2ccc(Br)cc2/C1=C1/SC(=S)N(NS(=O)(=O)c2ccccc2)C1=O as the entry.
< 1 µM (active)

###

tgt: Sentrin-specific protease 7 (Homo sapiens, UniProt Q9BQF6)
Sequence (Q9BQF6 whole entry): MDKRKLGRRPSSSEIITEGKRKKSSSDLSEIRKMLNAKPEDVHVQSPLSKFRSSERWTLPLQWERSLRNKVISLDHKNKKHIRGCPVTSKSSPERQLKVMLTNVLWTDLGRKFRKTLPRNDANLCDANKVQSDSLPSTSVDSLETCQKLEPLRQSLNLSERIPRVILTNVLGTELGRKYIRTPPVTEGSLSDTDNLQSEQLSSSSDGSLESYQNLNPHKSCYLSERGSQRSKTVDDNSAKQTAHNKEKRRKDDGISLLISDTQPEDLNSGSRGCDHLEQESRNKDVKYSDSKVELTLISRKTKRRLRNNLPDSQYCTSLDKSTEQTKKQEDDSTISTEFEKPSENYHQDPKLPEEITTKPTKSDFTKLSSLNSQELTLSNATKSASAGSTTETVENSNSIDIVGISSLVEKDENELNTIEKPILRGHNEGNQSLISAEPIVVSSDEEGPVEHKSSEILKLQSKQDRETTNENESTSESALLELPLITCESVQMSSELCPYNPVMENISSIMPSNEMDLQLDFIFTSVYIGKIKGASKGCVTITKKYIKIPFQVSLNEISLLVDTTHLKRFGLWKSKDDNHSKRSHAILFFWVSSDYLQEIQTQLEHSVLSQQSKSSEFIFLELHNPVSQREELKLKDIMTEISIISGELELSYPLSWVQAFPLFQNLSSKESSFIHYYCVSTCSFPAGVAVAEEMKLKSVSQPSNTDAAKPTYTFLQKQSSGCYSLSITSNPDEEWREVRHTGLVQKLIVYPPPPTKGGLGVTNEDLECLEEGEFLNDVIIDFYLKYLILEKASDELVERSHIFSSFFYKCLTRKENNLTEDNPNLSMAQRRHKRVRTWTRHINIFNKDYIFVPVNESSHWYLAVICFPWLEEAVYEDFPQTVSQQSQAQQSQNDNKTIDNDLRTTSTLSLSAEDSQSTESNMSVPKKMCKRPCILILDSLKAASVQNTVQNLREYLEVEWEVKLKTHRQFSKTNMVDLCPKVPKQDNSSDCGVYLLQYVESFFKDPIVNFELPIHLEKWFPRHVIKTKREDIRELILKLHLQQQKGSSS
Format: functional
Activity calls are given as the source filed them.
observedProperty: IC50

Tell me its IC50 given C/C(=N\OC(=O)c1ccc(Cl)cc1)c1nccs1 as the entry.
2.63 µM (active)

Tell me its IC50 given COc1ccc(-n2c(NC(=O)c3ccco3)c(C#N)c3nc4ccccc4nc32)cc1 as the entry.
5.78 µM (active)

Tell me its IC50 given O=C(Nc1cccc(Cl)c1)Nc1ccccc1C(=O)NCc1ccco1 as the entry.
4.05 µM (active)

Tell me its IC50 given O=C(/C=C/c1ccccc1)n1cnnc1SC/C=C/c1ccccc1 as the entry.
8.8 µM (active)

Tell me its IC50 given CC1CCCC(NC(=O)COC(=O)c2ccc([N+](=O)[O-])s2)C1C (stereo unspecified) as the entry.
8.12 µM (active)

Tell me its IC50 given CCOC(=O)Nc1ccc2nc(N3CCCCCC3)sc2c1 as the entry.
10.5 µM (active)

###

tgt: UniProt Q06710
Sequence (Q06710 whole entry): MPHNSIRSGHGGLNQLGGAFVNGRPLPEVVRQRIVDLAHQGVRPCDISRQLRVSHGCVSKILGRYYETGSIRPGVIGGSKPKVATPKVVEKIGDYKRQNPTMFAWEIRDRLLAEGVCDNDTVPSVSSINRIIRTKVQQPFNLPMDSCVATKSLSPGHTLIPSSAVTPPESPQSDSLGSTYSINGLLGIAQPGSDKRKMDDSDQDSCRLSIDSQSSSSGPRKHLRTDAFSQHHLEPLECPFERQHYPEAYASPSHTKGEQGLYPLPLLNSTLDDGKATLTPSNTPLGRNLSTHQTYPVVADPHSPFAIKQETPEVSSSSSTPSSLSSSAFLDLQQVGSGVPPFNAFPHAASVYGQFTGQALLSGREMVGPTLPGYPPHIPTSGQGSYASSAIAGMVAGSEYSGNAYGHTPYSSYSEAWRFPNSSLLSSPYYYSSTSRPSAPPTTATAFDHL
testMethodNotes: PAX8 transcriptional activity inhibition in RMG-I – RMG-I cells, luciferase, cherry-pick, dose response (AID 687027);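 note: luciferase reporter driven by Pax8 target thyroperoxidase promoter measured by SteadyGlo luminescence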
Type: functional, cell-based
Active and inactive are the calls of the source.
observedProperty: AC50

Tell me its AC50 given Cc1ccc(S(=O)(=O)NCc2ccc(C(=O)N3CCN(c4ccc([N+](=O)[O-])cc4)CC3)cc2)cc1 as the entry.
6.91 µM (active)

Tell me its AC50 given Cc1ccc(-c2ccc([C@@H]3[C@@H]4CN(C(=O)Nc5ccc(C(F)(F)F)cc5)C[C@H]3N4)cc2)cc1 as the entry.
3.06 µM (active)

Tell me its AC50 given O=C(CCS(=O)(=O)c1ccc(Cl)cc1)Nc1nc(-c2ccncc2)cs1 as the entry.
8.17 µM (active)

Tell me its AC50 given C[C@@H]1CN([C@@H](C)CO)C(=O)c2cc(NC(=O)Nc3ccc(C(F)(F)F)cc3)ccc2O[C@@H](C)CCCCO[C@@H]1CN(C)Cc1ccc2c(c1)OCO2 as the entry.
5.64 µM (active)

Tell me its AC50 given C[C@@H]1CCCCO[C@@H](CN(C)Cc2ccc(C(F)(F)F)cc2)[C@@H](C)CN([C@@H](C)CO)C(=O)c2cc(NS(=O)(=O)c3ccccc3)ccc2O1 as the entry.
7.21 µM (active)

Tell me its AC50 given O=C(COC(=O)c1ccco1)Nc1cccc(S(=O)(=O)N2CCOCC2)c1 as the entry.
62.1 µM (active)

Tell me its AC50 given C[C@@H]1CN([C@H](C)CO)C(=O)c2cc(NS(=O)(=O)c3ccc(Cl)cc3)ccc2O[C@@H](C)CCCCO[C@H]1CN(C)S(=O)(=O)c1ccc(F)cc1 as the entry.
2.46 µM (active)

Tell me its AC50 given C[C@@H]1CN([C@@H](C)CO)C(=O)c2cc(NC(=O)Nc3ccc4c(c3)OCO4)ccc2O[C@@H]1CN(C)C(=O)Nc1ccc(C(F)(F)F)cc1 as the entry.
11.1 µM (active)

Tell me its AC50 given Cc1cc(C)n(-c2nc(NCCN(C)C)c3c4c(sc3n2)CCCC4)n1 as the entry.
22.9 µM (active)

Tell me its AC50 given C[C@@H]1CN([C@H](C)CO)C(=O)c2cc(NS(=O)(=O)c3ccccc3)ccc2O[C@@H](C)CCCCO[C@H]1CN(C)Cc1ccc(Cl)c(Cl)c1 as the entry.
9.93 µM (active)

###

testMethodNotes: Trypanosoma cruzi growth suppression in host cells – NIH3T3 host cells, beta-gal luminescence, confirmation (AID 2044);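 note: intracellular parasites grown in NIH/3T3 mouse fibroblasts as host cells; luminescent beta-galactosidase reporter signal from transgenic T. cruzi replicating inside host cells; inhibitors lower the luminescence signal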
Format: functional, cell-based
Activity calls are given as the source filed them.
Would you kindly list EC50 for each of these compounds?

Tell me its EC50 given COc1cccc(CC2(CO)CCCN(Cc3ccc(CN4CCCCC4)s3)C2)c1 (stereo not drawn) as the entry.
253 nM (active)

Tell me its EC50 given Cc1ccc(C)c(Cn2c(O)c(N=NC(S)=Nc3ccccc3F)c3ccccc32)c1 as the entry.
1170 nM (active)

Tell me its EC50 given COc1cccc(-n2c(CN3CCN(c4cccc(C)c4)C(C)C3)nc3ccc([N+](=O)[O-])cc3c2=O)c1 (stereo not drawn) as the entry.
1910 nM (active)

Tell me its EC50 given O=C(N=Nc1c(O)[nH]c2ccc(Br)cc12)c1cc(-c2cccs2)nc2ccccc12 as the entry.
1410 nM (active)

Tell me its EC50 given COc1ccc(/C=C/c2nc3ccccc3n2Cc2ccccc2OC)cc1 as the entry.
663 nM (active)

Tell me its EC50 given CCN(CC)c1ccc(/N=C/c2cc(Br)ccc2O)cc1 as the entry.
4390 nM (active)

Tell me its EC50 given COc1ccc(CN2CCCC(CO)(Cc3ccc(F)cc3)C2)cc1C (stereo not drawn) as the entry.
640 nM (active)

Tell me its EC50 given CS(=O)(=O)NCCSCc1c(Cl)cccc1Cl as the entry.
36900 nM (active)
